Recorded Ex by entry
assay: Excitation/emission properties of dye NHS esters; format: physicochemical; conditions: PBS
Marks after values point to notes of the source that are not given here.
metric.name: Ex

compound	result
COCCOCCOCCOCCN(CCCS(=O)(=O)[O-])c1ccc2c(C(C)(C)C)cc(/C=C/C=C3/N(CCOCCOCCOCCOCCC(=O)ON4C(=O)CCC4=O)c4ccc(S(=O)(=O)[O-])cc4C3(C)CCCS(=O)(=O)[O-])[o+]c2c1.[Na+].[Na+] (stereo not shown)	679 (PBS)* nm
COCCOCCOCCOCCN(CCOCCOCCOCCOC)c1ccc2c(C(C)(C)C)cc(/C=C/C=C3/N(CCCS(=O)(=O)[O-])c4ccc(S(=O)(=O)[O-])cc4C3(C)CCCC(=O)ON3C(=O)CCC3=O)[o+]c2c1.[Na+] (stereo not shown)	675 (PBS)* nm
COCCOCCOCCOCCN(CCCS(=O)(=O)[O-])c1ccc2c(C(C)(C)C)cc(/C=C/C=C3/N(CCCS(=O)(=O)[O-])c4ccc(S(=O)(=O)[O-])cc4C3(C)CCCC(=O)ON3C(=O)CCC3=O)[o+]c2c1.[Na+].[Na+] (stereo not shown)	675 (PBS)* nm

Numbers sourced from patent US10174045B2.
